Every entry's value here was drawn from patent US20260217701A1.

# assay-explanation: Dog PK study #2 (Compound A IV, HPBCD formulation)
# Assay type: in vivo, beagle dogs
# condition-notes: beagle, dog, plasma, iv, 1 mg/kg, IV 1 mg/kg, HPBCD formulation; mean
measure: AUC(0-t) (ng·h/mL)
Response body: numeric value in ng·h/mL, unit text excluded.

In: Entry Cn1cc(-c2ccccc2)c(-c2cn(C)c(=O)c3[nH]c(-c4cnn(C(F)(F)F)c4)cc23)cc1=O [Compound A] : reported AUC(0-t) = ?
Out: 2570

###

# assay-explanation: Dog PK study #1 (Compound A IV and PO, propylene glycol formulation)
# Type: in vivo, beagle dogs
# condition-notes: beagle, dog, plasma, iv, 1 mg/kg, IV 1 mg/kg, 4 h; mean
measure: concentration at 4 h (ng/mL)
Response body: numeric value in ng/mL, unit text excluded.

In: Entry Cn1cc(-c2ccccc2)c(-c2cn(C)c(=O)c3[nH]c(-c4cnn(C(F)(F)F)c4)cc23)cc1=O : reported concentration at 4 h = ?
Out: 293
